Field: TGI. Provide a value for each of the compounds that follow.
test system: CAKI-1 renal; assay: NCI tumour cell line growth inhibition, 48 h

| Compound | TGI |
| --- | --- |
| Cc1cn(C2CC(n3cc(Cn4cc(Br)c(=O)[nH]c4=O)nn3)C(CO)O2)c(=O)[nH]c1=O (stereo unspecified) | > 100 µM |
| COc1cc(C)c2c(c1C)OC(=O)c1c(C)c(Cl)c(O)c(C=O)c1O2 | > 100 µM |
| Nc1ccc(N=Nc2ccccc2)cc1 | > 100 µM |
| COc1cc2ncn(-c3cc(OCCc4ccccc4)c(C(N)=O)s3)c2cc1OC | > 25 µM |
| Cc1cn(C(Cc2ccccc2)OCCO)c(=O)[nH]c1=O (stereo unspecified) | > 100 µM |

Now take the following compound into account.
Input: Quick one: TGI of `NC(N)=NCCCCCNc1noc(Cc2c[nH]c3cc(Br)ccc23)n1` ?
Output: > 100 µM
